# Assay Notes: yeast display, Sf9 membrane polyspecificity reagent, FACS + sequencing; frameworks hold sequencing errors
Assay Readout: polyreactivity (PSR sort gate)

Sequence Record	Observed Result
QVQLVESGGGLVQAGGSLRLSCASSGSIFAWNAMGWYRQTPGKERELVAAINSGGGTYYADSVKGRFTISRDNAKNTVYSQMNSLIPEDTAVYYCAAGRLSHRYRYNYWGQGTQVTVSS	high polyreactivity
QVQLVESGGGLVQAGGSLRLSCAASGRTFYNYAMGWYRQAPGKERELVATINRGVSTNYADSVKGRFTISRDNEKNTVYLQMNSLKPEDTAVYYCAARKRPPYGYGYWGQGTQVTVSS	high polyreactivity
